Data provenance is ChEMBL document CHEMBL3045268.

Recorded Activity, one value per entry.
test system: Mus musculus; test: Toxicity in Mus musculus (mouse) transplanted with mouse EAC cells assessed as effect on RBC level at 75 mg/kg, ip measured on day 13 post tumor implantation (reference value: 3.95 +/- 0.32 million/mm3); type: organism-based, Ehrlich; parameters: dose 75 mg/kg, route intraperitoneal; details: in vivo
quantity.name: Activity (million/mm3)

> print(dat)
                                   molecule  data.value
1  Cc1cc(O)c(-c2csc(N3C(=O)CSC3c3ccc(O)cc3)n2)c(=O)o1 (stereo not drawn)        5.63
2  COc1cc(C2SCC(=O)N2c2nc(-c3c(O)cc(C)oc3=O)cs2)cc(OC)c1OC (stereo not drawn)       17.78
3  Cc1cc(O)c(-c2csc(N3C(=O)CSC3c3cccc([N+](=O)[O-])c3)n2)c(=O)o1 (stereo not drawn)       19.07
4  Cc1cc(O)c(-c2csc(NC(=O)CN3CCN(C)CC3)n2)c(=O)o1           5
5  Cc1cc(O)c(-c2csc(N3C(=O)CSC3c3ccc(Cl)cc3)n2)c(=O)o1 (stereo not drawn)        2.76
6  COc1ccccc1N1CCN(CC(=O)Nc2nc(-c3c(O)cc(C)oc3=O)cs2)CC1        4.12
7  Cc1cc(O)c(-c2csc(NC(=O)CN3CCN(c4ccc(F)cc4)CC3)n2)c(=O)o1       17.29
8  Cc1cc(O)c(-c2csc(NC(=O)CN3CCN(C(=O)c4ccco4)CC3)n2)c(=O)o1        6.28
